Data origin, for the record: ChEMBL document CHEMBL1201862

# Test system: SF-295
# assay.name: NCI tumour cell line growth inhibition, 48 h
Structures can show the parent of a compound that is named as a salt. Calls of active or inactive are those of the source. No stated cut-off is given here; in the data, active = GI50 up to about 1.1 µM and inactive = higher.
Outcome codes: TRUE for active, FALSE for inactive

{"molecule": "O=c1c(Cl)cc2nc3ccccc3sc-2c1Cl", "class": "FALSE"}
{"molecule": "CN1[C@@H]2CC[C@H]1C[C@@H](OC(c1ccccc1)c1ccccc1)C2 [BENZTROPINE MESYLATE]", "class": "FALSE"}
{"molecule": "COc1cc(C)c(C)c(OC(=O)c2c(C)c(C)c(OC)c(C)c2OC)c1C", "class": "FALSE"}
{"molecule": "Cc1nnc(N)nc1C/C=C/C(C)Sc1ccc(Cl)cc1 (stereo unspecified)", "class": "FALSE"}
{"molecule": "CC(=O)OC1=C2CC[C@@H]3C(CC[C@@]4(C)C3CC[C@@H]4OC(C)=O)[C@@]2(C)CC(C#N)C1=O (stereo partly specified)", "class": "FALSE"}
{"molecule": "COc1nc(NC2OCC(O)C(O)C2O)c(NC2OCC(O)C(O)C2O)c(=O)n1C (stereo unspecified)", "class": "FALSE"}
{"molecule": "CC1=C(C(=O)Nc2ccc([N+](=O)[O-])cc2)C(c2ccccc2O)C(C(=O)Nc2ccc([N+](=O)[O-])cc2)=C(C)N1", "class": "FALSE"}
{"molecule": "NC1CC(n2ccc(=O)[nH]c2=O)OC1C(O)CO (stereo unspecified)", "class": "FALSE"}
{"molecule": "NNc1nncc2[nH]cnc12", "class": "FALSE"}
{"molecule": "Cc1ccc(S(=O)(=O)NC(=O)NC(CC(N)=O)C(=O)O)cc1 (stereo unspecified)", "class": "FALSE"}
{"molecule": "Cn1c(=S)sc2nc3ccccc3n2c1=S", "class": "FALSE"}
{"molecule": "O=C1C(O)=C(Cl)C(=O)c2c(O)ccc(O)c21", "class": "FALSE"}
{"molecule": "COc1cc(/C=[N+](\\[O-])c2ccccc2Cl)ccc1OC(=S)S", "class": "FALSE"}
{"molecule": "CC(=O)O[C@H]1CC[C@@]2(C)C(=CC[C@@H]3[C@@H]2CC[C@]2(C)c4nc(Cl)ccc4C[C@@H]32)C1", "class": "FALSE"}
{"molecule": "COC(C[C@H]1CCCC[C@]1(O)/C(=C\\CO[Si](C(C)C)(C(C)C)C(C)C)Sc1ccccc1)OC", "class": "FALSE"}
{"molecule": "O=C1C[C@H](c2ccccc2)C2(C(=O)c3ccccc3C2=O)[C@H](c2ccccc2)C1", "class": "FALSE"}
{"molecule": "Cc1cc(=O)n2nc(SCc3ccccc3)sc2n1", "class": "FALSE"}
{"molecule": "Nc1nc(Cl)cc(NCCCCO)n1", "class": "FALSE"}
{"molecule": "CC(C)Cn1cnc2c(SCc3ccccn3)nc(N)nc21", "class": "FALSE"}
{"molecule": "S=C(N/N=C(/c1ccccc1)c1ccccn1)Nc1ccc(Cl)cc1", "class": "TRUE"}
{"molecule": "Nc1nc(SCCc2ccccc2)nc2nc3c(c(-c4ccccc4)c12)CCCC3", "class": "FALSE"}

* * *

# Test system: K562
# assay.name: NCI tumour cell line growth inhibition, 48 h
Active and inactive are the calls of the source. No stated cut-off is given here; in the data, active = GI50 up to about 1.1 µM and inactive = higher.

{"molecule": "COc1ccc(NC(=O)CC(=O)NN2C(=O)/C(=C/c3ccc(N(CCC#N)CCC#N)cc3C)N=C2/C=C\\c2ccccc2)cc1", "GI50": "> 100 µM (inactive)"}
{"molecule": "O=C(O)/C(Cl)=C(\\Cl)C(=O)Nc1ccccc1", "GI50": "> 100 µM (inactive)"}
{"molecule": "CC1=C(C(=O)Nc2ccc([N+](=O)[O-])cc2)C(c2ccccc2O)C(C(=O)Nc2ccc([N+](=O)[O-])cc2)=C(C)N1", "GI50": "17.9 µM (inactive)"}
{"molecule": "CC(=N\\N=C\\c1ccccn1)/C(C)=N/N=C(C)/C(C)=N/N=C(C)/C(C)=N/N=C/c1ccccn1", "GI50": "> 100 µM (inactive)"}
{"molecule": "CCOC(=O)c1sc2nc(SC)nc3c2c1N=CN3c1ccccc1Cl", "GI50": "72.3 µM (inactive)"}
{"molecule": "COc1c(OC(C)=O)cc2c(OC(C)=O)c1CC(C)CC(OC)C(O)C(C)/C=C(\\C)C(OC(N)=O)C(OC)/C=C\\C=C(/C)C(=O)N2 (stereo unspecified)", "GI50": "> 26.3 µM (inactive)"}
{"molecule": "O=C1c2cccc3cc([N+](=O)[O-])cc(c23)C(=O)N1O", "GI50": "36.8 µM (inactive)"}
{"molecule": "Cc1ccc2ccccc2c1CC1S(=O)(=O)OCCOS1(=O)=O", "GI50": "9.12 µM (inactive)"}
{"molecule": "N#CC12CCC(O)C(CC1)C2=O (stereo unspecified)", "GI50": "> 100 µM (inactive)"}
{"molecule": "Cn1c([C@H](C#N)c2ncccc2[N+](=O)[O-])nc2ccccc21", "GI50": "> 100 µM (inactive)"}
{"molecule": "NNC1=N/C(=C\\c2ccco2)C(=O)N1", "GI50": "93.3 µM (inactive)"}
{"molecule": "COc1ccc(C2OC(=O)c3ccc4ccccc4c32)c(C)c1 (stereo unspecified)", "GI50": "3.55 µM (inactive)"}
{"molecule": "O=c1oc2ccc([N+](=O)[O-])cc2cc1Br", "GI50": "> 100 µM (inactive)"}
{"molecule": "COc1cc2c(cc1OC)C(CC1=C(c3ccccc3)CN3CCc4cc(OC)c(OC)cc4C3C1)NCC2 (stereo unspecified)", "GI50": "12.2 µM (inactive)"}
{"molecule": "NCC(=O)Nc1ccc(S(=O)(=O)O)c2cc(S(=O)(=O)O)cc(S(=O)(=O)O)c12", "GI50": "> 100 µM (inactive)"}
{"molecule": "Cc1nc2c(ccc3ncccc32)[nH]1", "GI50": "> 100 µM (inactive)"}
{"molecule": "COC(=O)C1=C(c2ccc3c(c2)OCO3)OC(c2ccc3c(c2)OCO3)C1 (stereo unspecified)", "GI50": "> 100 µM (inactive)"}
{"molecule": "Cc1cccc2c1c(=O)c1c(O)cc(O)cc1n2C", "GI50": "80.5 µM (inactive)"}
{"molecule": "N/N=C(\\N)Nc1cccc2ccccc12", "GI50": "> 100 µM (inactive)"}
{"molecule": "Cc1cc(C(=O)CBr)c(CN2C(=O)c3ccccc3C2=O)c(=O)n1C", "GI50": "3.19 µM (inactive)"}
{"molecule": "OCC1OC(n2cnc3c(/C=C(/O)c4ccccc4)ncnc32)C(O)C1O (stereo unspecified)", "GI50": "2.83 µM (inactive)"}
